- Test system: HT-29
- assay.protocol: NCI tumour cell line growth inhibition, 48 h
Activity calls are given as the source filed them. No stated cut-off is given here; in the data, active = GI50 up to about 1.1 µM and inactive = higher.
measured.quantity: GI50

# compound, measured.quantity, result.value
measured = [
    ("O=C1C([N-]S(=O)(=O)c2ccccc2)=C([n+]2ccc(Cc3ccccc3)cc2)C(=O)c2ccccc21", "GI50", "0.263 µM (active)"),
    ("CC1C(=O)C(C)C(c2cccs2)N(N=O)C1c1cccs1 (stereo not given)", "GI50", "> 35 µM (inactive)"),
    ("NC1CC(=O)c2cc(Br)sc21 (stereo not given)", "GI50", "> 100 µM (inactive)"),
    ("Cc1ccc(/C=C2\\CCS(=O)(=O)c3ccccc3C2=O)cc1", "GI50", "17 µM (inactive)"),
    ("c1ccc(-c2nnn(CCN3CCCCC3)n2)cc1", "GI50", "> 100 µM (inactive)"),
    ("COC(=O)C(Cc1nc2ccc(Cl)cc2nc1O)/C(=N/NC(N)=O)C(=O)Nc1ccc(Cl)cc1 (stereo not given)", "GI50", "> 100 µM (inactive)"),
]

// fetch GI50 given entry N#CSc1[nH]cnc1C(N)=O
> 100 µM (inactive)

Please indicate GI50 recorded for CC(C)NCCNC(=O)c1ccccc1Nc1c(Cl)cccc1Cl
4.71 µM (inactive)

Report measured GI50; entry is COC(=O)c1cc2c(cc1CC(Cc1ccc3c(c1)CCC3)C(=O)OC)CCC2 (stereo not given)
26.1 µM (inactive)

Write down GI50 measured for item C=CCN(c1cc(OC)c2c(c1[N+](=O)[O-])C(C)(SC)C(=O)N2)S(C)(=O)=O (stereo not given)
> 100 µM (inactive)
